All values here come from patent US20240360238A1.

# target under test: T1, purified rhesus CD117 ectodomain (rhesus, UniProt F6V858 26-524)
# T1 construct: extracellular domain; also called rhesus antigen
# method notes: BLI, purified IgG on sensor, soluble rhesus ectodomain; apparent monovalent
Assignment: determine reported Kd for the given binders.
Return type: number; implicit unit nM.

So, HC-27/LC-27 (Ab27) (antibody, IgG1, V domains shown, From rat immunization/hybridoma; purified IgG in BLI; also called 027) VH: EVQLVESGGGLVQPGRSMKLSCKASGFTFSNYDMAWVRQAPTRGLEWVASISYDGITAYYRDSVKGRFTISRENAKSTLYLQLVSLRSEDTATYYCTTEGGYVYSGPHYFDYWGQGVMVTVSS VL: DIQMTQSPSSMSVSLGDTVTITCRASQDVGIFVNWFQQKPGRSPRRMIYRATNLADGVPSRFSGSRSGSDYSLTISSLESEDVADYHCLQYDEFPRTFGGGTKLELK ? Its Kd was 0.89

Reported Kd for HC-21/LC-21 (Ab21) (antibody, IgG1, V domains shown, From rat immunization/hybridoma; purified IgG in BLI; also called 021) VH: QIQLVQSGPELKKPGESVKISCKASGYTFTDYAVYWVIQAPGKGLKWMGWINTYTGKPTYADDFKGRFVFSLETSASTANLQISNLKNEDTATYFCARGAGMTKDYVMDAWGRGVLVTVS VL: SYELIQPPSASVTLGNTVSLTCVGDELSKRYAQWYQQKPDKTIVSVIYKDSERPSDISDRFSGSSSGTTATLTIHGTLAEDEADYYCLSTYSDDNLPVFGGGTKLTVL was 0.869

# Kd (binder: HC-18/LC-18 (Ab18) (antibody, IgG1, V domains shown, From rat immunization/hybridoma; purified IgG in BLI; also called 018) VH: EVQLQQYGAELGKPGTSVRLSCKVSGYNIRNTYIHWVNQRPGEGLEWIGRIDPTNGNTISAEKFKTKATLTADTSSHTAYLQFSQLKSDDTAIYFCALNYEGYADYWGQGVMVTGSS VL: DIQMTQSPSFLSASVGDRVTINCKASQNINKYLNWYQQKVGEAPKRLIFKTNSLQTGIPSRFSGSGSGTDYTLTISSLQTEDVATYFCFQYNIGYTFGAGTKVELK ) is 53.8

Per the record, HC-19/LC-19 (Ab19) (antibody, IgG1, V domains shown, From rat immunization/hybridoma; purified IgG in BLI; also called 019) VH: EVQLQESGPGLVKPSQSLSLTCSVTGYSISSNYRWNWIRKFPGNKVEWMGYINSAGSTNYNPSLKSRISMTRDTSKNQFFLQVNSVTTEDTATYYCARSLRGYITDYSGFFDYWGQGVMVTVSS VL: DIRMTQSPASLSASLGETVNIECLASEDIFSDLAWYQQKPGKSPQLLIYNANSLQNGVPSRFSGSGSGTRYSLKINSLQSEDVATYFCQQYKNYPLTFGSGTKLEIK has Kd of 2.34

Sample HC-24/LC-24 (Ab24) (antibody, IgG1, V domains shown, From rat immunization/hybridoma; purified IgG in BLI; also called 024) VH: EVQLVESGGGLVQSGRSLKLSCAASGFTVSDYYMAWVRQAPTKGLEWVATINYDGSTTYHRDSVKGRFTISRDNAKSTLYLQMDSLRSEDTATYYCARHGDYGYHYGAYYFDYWGQGVMVTVSS VL: DIVLTQSPALAVSLGQRATISCRASQTVSLSGYNLIHWYQQRTGQQPKLLIYRASNLAPGIPARFSGSGSGTDFTLTISPVQSDDIATYYCQQSRESWTFGGGTNLEMK ; Kd observed: 19.6

Per the record, HC-28/LC-28 (Ab28) (antibody, IgG1, V domains shown, From rat immunization/hybridoma; purified IgG in BLI; also called 028) VH: EVQLQQYGAELGKPGTSVRLSCKVSGYKIRNTYIHWVNQRPGKGLEWIGRIDPANGNTIYAEKFKSKVTLTADTSSNTAYMQLSQLKSDDTALYFCAMNYEGYEDYWGQGVMVTVSS VL: DIQMTQSPSFLSASVGDSVTINCKASQNINKYLNWYQQKLGEAPKRLIHKTNSLQPGFPSRFSGSGSGTDYTLTISSLQPEDVAAYFCFQYNSGFTFGAGTKLELK has Kd of 3.6

// Kd lookup, binder = HC-23/LC-23 (Ab23) (antibody, IgG1, V domains shown, From rat immunization/hybridoma; purified IgG in BLI; also called 023) VH: EVQLQQYGAELGKPGTSVRLSCKVSGYNIRNTYIHWVHQRPGEGLEWIGRIDPTNGNTISAEKFKSKATLTADTSSNTAYMQFSQLKSDDTAIYFCAMNYEGYADYWGQGVMVTVSS VL: DIQMTQSPSFLSASVGDRLTINCKASQNINKYLNWYQQKLGEAPKRLIFKTNSLQTGIPSRFSGSGSGTDYTLTISSLQPEDVATYFCFQYNIGFTFGAGTKLELK , result: 7.62

Item: HC-22/LC-22 (Ab22) (antibody, IgG1, V domains shown, From rat immunization/hybridoma; purified IgG in BLI; also called 022) VH: QVQLKESGPGLVQPSQTLSLTCTVSGFSLTSYLVHWVRQPPGKTLEWVGLMWNDGDTSYNSALKSRLSISRDTSKSQVFLKMHSLQAEDTATYYCARESNLGFTYWGHGTLVTVSS VL: DIQMTQSPASLSASLEEIVTITCKASQGIDDDLSWYQQKPGKSPQLLIYDVTRLADGVPSRFSGSRSGTQYSLKISRPQVADSGIYYCLQSYSTPYTFGAGTKLELK | Kd: 0.0891

Value of measured Kd for the entry HC-17/LC-17 (Ab17) (antibody, IgG1, V domains shown, From rat immunization/hybridoma; purified IgG in BLI; also called 017) VH: QIQLVQSGPELRKPGESVKISCKASGYTFTDYAMYWVKQAPGKGLKWMGWINTYTGKPTYADDFKGRFVFSLEASANTANLQISNLKNEDTATYFCARARGLVDDYVMDAWGQGTSVTVSS VL: SYELIQPPSASVTLGNTVSLTCVGDELSKRYAQWYQQKPDKTIVSVIYKDSERPSGISDRFSGSSSGTTATLTIHGTLAEDEADYYCLSTYSDDNLPVFGGGTKLTVL : 0.562

Per the records, this binder ( HC-25/LC-25 (Ab25) (antibody, IgG1, V domains shown, From rat immunization/hybridoma; purified IgG in BLI; also called 025) VH: QIQLVQSGPELKKPGESVKISCKASGYTFTDYAIHWVKQAPGQGLRWMAWINTETGKPTYADDFKGRFVFSLEASASTAHLQISNLKNEDTATFFCAGGSHWFAYWGQGTLVTVSS VL: SYELIQPPSASVTLENTVSITCSGDELSNKYAHWYQQKPDKTILEVIYNDSERPSGISDRFSGSSSGTTAILTIRDAQAEDEADYYCLSTFSDDDLPIFGGGTKLTVL ) has Kd equal to 0.81

The recorded Kd for HC-20/LC-20 (Ab20) (antibody, IgG1, V domains shown, From rat immunization/hybridoma; purified IgG in BLI; also called 020) VH: EVQLQQYGAELGKPGTSVRLSCKLSGYKIRNTYIHWVNQRPGKGLEWIGRIDPANGNTIYAEKFKSKVTLTADTSSNTAYMQLSQLKSDDTALYFCAMNYEGYEDYWGQGVMVTVSS VL: DIQMTQSPSFLSASVGDSVTINCKASQNINKYLNWYQQKLGEAPKRLIHKTDSLQTGIPSRFSGSGSGTDYTLTISSLQPEDVATYFCFQYKSGFMFGAGTKLELK is 1.39
